# target.desc: AmpC from Escherichia coli (AmpCEC) (Escherichia coli, UniProt P00811)
# Construct: made in house
# Sequence (P00811 20-377): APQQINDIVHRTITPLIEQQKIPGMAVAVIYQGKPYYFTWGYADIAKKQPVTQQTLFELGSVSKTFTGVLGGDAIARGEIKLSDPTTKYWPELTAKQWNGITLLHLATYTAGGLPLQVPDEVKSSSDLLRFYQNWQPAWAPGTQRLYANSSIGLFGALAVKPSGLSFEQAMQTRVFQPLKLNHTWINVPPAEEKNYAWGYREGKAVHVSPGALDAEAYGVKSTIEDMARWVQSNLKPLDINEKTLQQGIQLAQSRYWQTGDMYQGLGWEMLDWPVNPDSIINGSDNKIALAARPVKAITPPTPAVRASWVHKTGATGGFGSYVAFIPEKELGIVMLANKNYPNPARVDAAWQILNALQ
# assay.summary: IC50/pIC50 determination with fluorescent reporter substrate FC-5 after pre-incubation
# Format: biochemical
# details: pIC50, AmpCEC, pH 7.5, pH 7.5; 60 min pre-incubation; Table S2
# Description: Kinetic analyses were performed (at least in triplicate) using either BMG LABTECH PHERAstar or CLARIOstar plate readers. […] IC50s were determined as reported ([35]). […] The apparent inhibitory constant Kiapp and the second-order rate constant kinact/K (or k2/K) were determined using reported methods ([60]). […] Reactions were initiated by SBL addition and immediately monitored for 60 to 120 s (until they plateaued). […]
measured.metric: IC50 (µM)
One number for each entry, in µM.

-- ask Form field - read-out: IC50; system: AmpC from Escherichia coli (AmpCEC) (Escherichia coli, UniProt P00811); submitted item: CC1(C)[C@H](C(=O)O)N2C(=O)C[C@H]2S1(=O)=O [sulbactam]
-- reply 20

---

# target.desc: AmpC from Escherichia coli (AmpCEC) (Escherichia coli)
# Construct: made in house
# assay.summary: IC50/pIC50 determination with fluorescent reporter substrate FC-5 after pre-incubation
# Type: biochemical
# details: pIC50 at pH 7.5, AmpCEC, 60 min pre-incubation; Table S1
measured.metric: pIC50
Give bare numbers, as −log10 of the molar value.

-- ask Give the measured pIC50 of CC1(C)[C@H](C(=O)O)N2C(=O)C[C@H]2S1(=O)=O .
-- reply 4.70

---

# target.desc: AmpC from Escherichia coli (AmpCEC) (Escherichia coli, UniProt P00811)
# Construct: made in house
# assay.summary: IC50/pIC50 determination with fluorescent reporter substrate FC-5 after pre-incubation
# Type: biochemical
# details: pIC50, AmpCEC, pH 8.0, pH 8.0; 360 min pre-incubation; Table S2
measured.metric: pIC50
Give bare numbers, as −log10 of the molar value.

-- ask Form field - read-out: pIC50; system: AmpC from Escherichia coli (AmpCEC) (Escherichia coli, UniProt P00811); submitted item: CC1(C)[C@H](C(=O)O)N2C(=O)C[C@H]2S1(=O)=O [sulbactam]
-- reply 5.77

---

# target.desc: OXA-10 (Pseudomonas aeruginosa, UniProt P14489)
# Construct: His tag (N); made in house
# Sequence (P14489 20-266): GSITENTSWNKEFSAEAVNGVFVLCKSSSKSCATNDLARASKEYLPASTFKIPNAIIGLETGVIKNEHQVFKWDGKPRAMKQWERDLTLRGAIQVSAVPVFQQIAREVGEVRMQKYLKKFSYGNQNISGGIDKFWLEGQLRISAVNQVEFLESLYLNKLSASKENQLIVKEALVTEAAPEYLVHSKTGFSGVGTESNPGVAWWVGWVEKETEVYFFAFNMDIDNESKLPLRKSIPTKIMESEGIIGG
# assay.summary: IC50/pIC50 determination with fluorescent reporter substrate FC-5 after pre-incubation
# Format: biochemical
# details: pIC50 at pH 7.5, OXA-10, without added NaHCO3; 0 min pre-incubation; Table S1
measured.metric: IC50 (µM)
Numbers only, in µM.

-- ask Give the measured IC50 of CC1(C)[C@H](C(=O)O)N2C(=O)C[C@H]2S1(=O)=O .
-- reply 204

---

# target.desc: AmpC from Escherichia coli (AmpCEC) (Escherichia coli, UniProt P00811)
# Construct: made in house
# assay.summary: IC50/pIC50 determination with fluorescent reporter substrate FC-5 after pre-incubation
# Format: biochemical
# details: pIC50, AmpCEC, pH 7.0, pH 7.0; 10 min pre-incubation; Table S2
measured.metric: IC50 (µM)
One number for each entry, in µM.

-- ask Give the measured IC50 of CC1(C)[C@H](C(=O)O)N2C(=O)C[C@H]2S1(=O)=O .
-- reply 162

---

# target.desc: AmpC from Escherichia coli (AmpCEC) (Escherichia coli, UniProt P00811)
# Construct: made in house
# assay.summary: IC50/pIC50 determination with fluorescent reporter substrate FC-5 after pre-incubation
# Assay type: biochemical
# details: pIC50 at pH 7.5, AmpCEC, 0 min pre-incubation; Table S1
measured.metric: IC50 (µM)
One number for each entry, in µM.

-- ask Give the measured IC50 of CC1(C)[C@H](C(=O)O)N2C(=O)C[C@H]2S1(=O)=O .
-- reply 275

---

# target.desc: OXA-10 (Pseudomonas aeruginosa)
# Construct: His tag (N); made in house
# assay.summary: IC50/pIC50 determination with fluorescent reporter substrate FC-5 after pre-incubation
# Type: biochemical
# details: pIC50 at pH 7.5, OXA-10, with 100 mM added NaHCO3; 0 min pre-incubation; Table S1
measured.metric: IC50 (µM)
Give bare numbers, in µM.

-- ask Give the measured IC50 of CC1(C)[C@H](C(=O)O)N2C(=O)C[C@H]2S1(=O)=O .
-- reply 219

---

# target.desc: AmpC from Escherichia coli (AmpCEC) (Escherichia coli, UniProt P00811)
# Construct: made in house
# assay.summary: IC50/pIC50 determination with fluorescent reporter substrate FC-5 after pre-incubation
# Format: biochemical
# details: pIC50, AmpCEC, pH 7.0, pH 7.0; 60 min pre-incubation; Table S2
measured.metric: IC50
State the result as a value with its unit after it.

-- ask Form field - read-out: IC50; system: AmpC from Escherichia coli (AmpCEC) (Escherichia coli, UniProt P00811); submitted item: CC1(C)[C@H](C(=O)O)N2C(=O)C[C@H]2S1(=O)=O
-- reply 45.7 µM

---

# target.desc: AmpC from Escherichia coli (AmpCEC) (Escherichia coli, UniProt P00811)
# Construct: made in house
# assay.summary: IC50/pIC50 determination with fluorescent reporter substrate FC-5 after pre-incubation
# Format: biochemical
# details: pIC50, AmpCEC, pH 8.0, pH 8.0; 0 min pre-incubation; Table S2
measured.metric: pIC50
Answers are plain numbers, as −log10 of the molar value.

-- ask Give the measured pIC50 of CC1(C)[C@H](C(=O)O)N2C(=O)C[C@H]2S1(=O)=O [sulbactam] .
-- reply 4.01

---

# target.desc: OXA-10 (Pseudomonas aeruginosa, UniProt P14489)
# Construct: His tag (N); made in house
# assay.summary: IC50/pIC50 determination with fluorescent reporter substrate FC-5 after pre-incubation
# Format: biochemical
# details: pIC50 at pH 7.5, OXA-10, with 100 mM added NaHCO3; 60 min pre-incubation; Table S1
# Experimental: Kinetic analyses were performed (at least in triplicate) using either BMG LABTECH PHERAstar or CLARIOstar plate readers. […] IC50s were determined as reported ([35]). […] The apparent inhibitory constant Kiapp and the second-order rate constant kinact/K (or k2/K) were determined using reported methods ([60]). […] Reactions were initiated by SBL addition and immediately monitored for 60 to 120 s (until they plateaued). […]
measured.metric: IC50 (µM)
Numbers only, in µM.

-- ask Form field - read-out: IC50; system: OXA-10 (Pseudomonas aeruginosa, UniProt P14489); submitted item: CC1(C)[C@H](C(=O)O)N2C(=O)C[C@H]2S1(=O)=O
-- reply 112

---

# target.desc: AmpC from Escherichia coli (AmpCEC) (Escherichia coli)
# Construct: made in house
# assay.summary: IC50/pIC50 determination with fluorescent reporter substrate FC-5 after pre-incubation
# Format: biochemical
# details: pIC50, AmpCEC, pH 7.0, pH 7.0; 360 min pre-incubation; Table S2
measured.metric: IC50 (µM)
Numbers only, in µM.

-- ask Give the measured IC50 of CC1(C)[C@H](C(=O)O)N2C(=O)C[C@H]2S1(=O)=O [sulbactam] .
-- reply 11.5

---

# target.desc: OXA-10 (Pseudomonas aeruginosa)
# Construct: His tag (N); made in house
# assay.summary: Kiapp and kinact/K determination in competition with FC-5
# Format: biochemical
# details: OXA-10 (50 nM), FC-5 (5 µM); pH 7.5; 10 mM NaHCO3; read-out: Kiapp, OXA-10
measured.metric: Ki

-- ask Give the measured Ki of C[C@]1(Cn2ccnn2)[C@H](C(=O)O)N2C(=O)C[C@H]2S1(=O)=O .
-- reply 469 µM

---

# target.desc: OXA-10 (Pseudomonas aeruginosa)
# Construct: His tag (N); made in house
# assay.summary: IC50/pIC50 determination with fluorescent reporter substrate FC-5 after pre-incubation
# Type: biochemical
# details: pIC50 at pH 7.5, OXA-10, without added NaHCO3; 360 min pre-incubation; Table S1
measured.metric: pIC50
Numbers only, as −log10 of the molar value.

-- ask Give the measured pIC50 of CC1(C)[C@H](C(=O)O)N2C(=O)C[C@H]2S1(=O)=O .
-- reply 4.30

---

# target.desc: OXA-10 (Pseudomonas aeruginosa)
# Construct: His tag (N); made in house
# assay.summary: IC50/pIC50 determination with fluorescent reporter substrate FC-5 after pre-incubation
# Assay type: biochemical
# details: pIC50 at pH 7.5, OXA-10, without added NaHCO3; 60 min pre-incubation; Table S1
measured.metric: IC50 (µM)
Answers are plain numbers, in µM.

-- ask Form field - read-out: IC50; system: OXA-10 (Pseudomonas aeruginosa); submitted item: CC1(C)[C@H](C(=O)O)N2C(=O)C[C@H]2S1(=O)=O
-- reply 75.9

These entries and their values trace back to paper PMC9170034.
